Data credit: ChEMBL document CHEMBL3232794

Parameter IC50, tested on Epidermal growth factor receptor (Homo sapiens, UniProt P00533, L858R), listed per item.
Sequence (P00533 25-1210 L858R limits assumed): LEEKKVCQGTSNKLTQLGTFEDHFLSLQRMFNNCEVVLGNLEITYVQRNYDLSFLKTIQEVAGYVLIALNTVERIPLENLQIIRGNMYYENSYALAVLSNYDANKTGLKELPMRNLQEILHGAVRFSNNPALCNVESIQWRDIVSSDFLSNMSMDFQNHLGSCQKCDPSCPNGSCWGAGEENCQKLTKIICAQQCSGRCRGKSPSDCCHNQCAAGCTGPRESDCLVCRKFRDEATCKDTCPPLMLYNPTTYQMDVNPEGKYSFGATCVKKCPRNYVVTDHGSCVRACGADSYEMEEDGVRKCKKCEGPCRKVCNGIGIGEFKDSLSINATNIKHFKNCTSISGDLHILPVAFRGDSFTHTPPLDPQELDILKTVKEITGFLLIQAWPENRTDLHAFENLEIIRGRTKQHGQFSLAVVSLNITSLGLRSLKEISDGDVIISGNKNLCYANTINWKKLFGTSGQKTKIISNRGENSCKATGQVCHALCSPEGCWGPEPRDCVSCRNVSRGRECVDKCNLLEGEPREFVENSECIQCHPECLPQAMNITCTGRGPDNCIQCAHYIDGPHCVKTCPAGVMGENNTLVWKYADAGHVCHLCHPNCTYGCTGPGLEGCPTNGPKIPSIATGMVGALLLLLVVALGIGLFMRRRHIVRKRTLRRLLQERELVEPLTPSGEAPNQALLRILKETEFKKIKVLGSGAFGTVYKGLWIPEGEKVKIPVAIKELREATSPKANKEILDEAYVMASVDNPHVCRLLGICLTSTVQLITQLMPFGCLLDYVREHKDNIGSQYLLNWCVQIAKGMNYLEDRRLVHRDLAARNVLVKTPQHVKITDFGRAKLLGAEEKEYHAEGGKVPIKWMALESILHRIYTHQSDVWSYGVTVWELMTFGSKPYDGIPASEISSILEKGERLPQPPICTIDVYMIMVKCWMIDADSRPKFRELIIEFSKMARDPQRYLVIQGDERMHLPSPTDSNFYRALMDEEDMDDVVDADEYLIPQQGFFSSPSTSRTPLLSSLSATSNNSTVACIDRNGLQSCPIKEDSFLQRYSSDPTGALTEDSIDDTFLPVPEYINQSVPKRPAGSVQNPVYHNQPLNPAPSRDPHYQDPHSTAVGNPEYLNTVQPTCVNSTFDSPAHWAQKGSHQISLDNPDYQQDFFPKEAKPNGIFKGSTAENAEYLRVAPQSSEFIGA
TEST READOUT: IC50 (nM)

SMILES INPUT | TEST READOUT | QUANTITY UNIT | MEASURED RESULT
CCN(CC)CCC(=O)Nc1cccc(Oc2nc(Nc3ccc(N4CCN(C)CC4)cc3OC)ncc2Cl)c1 | IC50 | nM | 818
COc1cc(N2CCN(C)CC2)ccc1Nc1ncc(Cl)c(Oc2cccc(NC(=O)CCN3CCCC3)c2)n1 | IC50 | nM | 427
COc1cc(N2CCN(C)CC2)ccc1Nc1ncc(Cl)c(Oc2cccc(NC(=O)CCN3CCN(C)CC3)c2)n1 | IC50 | nM | 10000
COc1cc(N2CCN(C)CC2)ccc1Nc1ncc(Cl)c(Oc2cccc(NC(=O)CCN3CCCCC3)c2)n1 | IC50 | nM | 4530

###

- ASSAY: cells
- Format: functional, cell-based
- RECORDED CONDITIONS: Homo sapiens, BEAS-2B, 72 h
- Description: Antiproliferative activity against human BEAS2B cells after 72 hrs by MTT assay
TEST READOUT: log10 of IC50 (log10 of the value in nM)

SMILES INPUT | MEASURED RESULT
CCN(CC)CCC(=O)Nc1cccc(Oc2nc(Nc3ccc(N4CCN(C)CC4)cc3OC)ncc2Cl)c1 | 2.64
COc1cc(N2CCN(C)CC2)ccc1Nc1ncc(Cl)c(Oc2cccc(NC(=O)CCN3CCCC3)c2)n1 | 3.28
COc1cc(N2CCN(C)CC2)ccc1Nc1ncc(Cl)c(Oc2cccc(NC(=O)CCN(C)C)c2)n1 | 2.79
COc1cc(N2CCN(C)CC2)ccc1Nc1ncc(Cl)c(Oc2cccc(NC(=O)CCN3CCN(C)CC3)c2)n1 | 2.61
COc1cc(N2CCN(C)CC2)ccc1Nc1ncc(Cl)c(Oc2cccc(NC(=O)CCN3CCN(CCOc4no[n+]([O-])c4S(=O)(=O)c4ccccc4)CC3)c2)n1 | 3.53
COc1cc(N2CCN(C)CC2)ccc1Nc1ncc(Cl)c(Oc2cccc(NC(=O)CCN3CCOCC3)c2)n1 | 3.36
COc1cc(N2CCN(C)CC2)ccc1Nc1ncc(Cl)c(Oc2cccc(NC(=O)CCN3CCCCC3)c2)n1 | 2.56
COc1cc(N2CCN(C)CC2)ccc1Nc1ncc(Cl)c(Oc2cccc(NC(=O)CCN3CCN(CCO)CC3)c2)n1 | 3.22
CCOC(=O)N1CCN(CCC(=O)Nc2cccc(Oc3nc(Nc4ccc(N5CCN(C)CC5)cc4OC)ncc3Cl)c2)CC1 | 3.76

###

- ASSAY: Chemical stability of the compound in buffer solution assessed as compound remaining at 50 uM at pH 9 after 24 hrs by LC-UV analysis
- Format: physicochemical
- RECORDED CONDITIONS: buffer solution, pH 9; read-out: Stability

SMILES INPUT | remaining at 24 h, 50 µM [%]
COc1cc(N2CCN(C)CC2)ccc1Nc1ncc(Cl)c(Oc2cccc(NC(=O)CCN3CCN(CCO)CC3)c2)n1 | 81.4

###

- ASSAY: Chemical stability of the compound in buffer solution assessed as compound remaining at 50 uM at pH 7.4 after 24 hrs by LC-UV analysis
- Type: physicochemical
- RECORDED CONDITIONS: read-out: Stability
remaining at 24 h, 50 µM values, listed per item
TEST READOUT: remaining at 24 h, 50 µM (%)

SMILES INPUT | TEST READOUT | MEASURED RESULT
C=CC(=O)Nc1cccc(Oc2nc(Nc3ccc(N4CCN(C)CC4)cc3OC)ncc2Cl)c1 | remaining at 24 h, 50 µM | 101
COc1cc(N2CCN(C)CC2)ccc1Nc1ncc(Cl)c(Oc2cccc(NC(=O)CCN3CCN(CCO)CC3)c2)n1 | remaining at 24 h, 50 µM | 99.5
